# TARGET: GroEL/GroES
# Design: species or system Escherichia coli
# Description: Inhibition of Escherichia coli GroEL expressed in Escherichia coliDH5alpha/Escherichia coli GroES expressed in Escherichia coli BL21 (DE3) assessed as reduction in GroEL/GroES-mediated denatured soluble pig heart MDH refolding by measuring MDH enzyme activity using sodium mesoxalate as substrate after 20 to 40 mins by malachite green dye based spectrometric analysis
ENDPOINT NAME: IC50
The reply should read as a number followed by its unit.

query: # get_value(readout= IC50, system= GroEL/GroES) for C=CC1=C(C)c2cc3[nH]c(cc4nc(cc5[nH]c(cc1n2)c(C)c5CCC(=O)O)C(CCC(=O)O)=C4C)c(C)c3C=C [PROTOPORPHYRIN]
result: 4.4 µM

====

# TARGET: Chaperonin GroEL (Escherichia coli (strain K12));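 note: inhibition of GroEL ATPase activity with ATP as substrate, 60 min incubation, spectrometric read-out, recombinant enzyme produced in Escherichia coli DH5alpha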
# Sequence (P0A6F5 whole entry): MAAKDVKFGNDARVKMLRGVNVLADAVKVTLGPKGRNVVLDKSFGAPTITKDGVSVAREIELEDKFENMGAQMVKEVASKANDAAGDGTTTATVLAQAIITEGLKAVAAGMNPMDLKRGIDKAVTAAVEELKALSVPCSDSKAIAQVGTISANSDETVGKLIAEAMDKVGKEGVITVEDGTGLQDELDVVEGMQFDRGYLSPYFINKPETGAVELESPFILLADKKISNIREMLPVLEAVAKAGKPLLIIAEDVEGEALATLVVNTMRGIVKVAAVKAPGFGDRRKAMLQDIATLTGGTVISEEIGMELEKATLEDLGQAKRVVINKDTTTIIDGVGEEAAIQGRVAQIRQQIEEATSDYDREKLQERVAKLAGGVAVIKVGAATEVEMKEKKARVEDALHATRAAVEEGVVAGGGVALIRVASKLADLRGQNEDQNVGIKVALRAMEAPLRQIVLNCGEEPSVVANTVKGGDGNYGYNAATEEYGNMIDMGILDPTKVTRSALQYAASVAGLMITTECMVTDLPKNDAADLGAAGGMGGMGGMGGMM
pIC50: −log10 of the molar value.
ENDPOINT NAME: pIC50

query: So what's the measured pIC50 for this one? IVERMECTIN
result: < 3.60

====

# TARGET: Thiosulfate sulfurtransferase (Homo sapiens, UniProt Q16762);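 note: native rhodanese of unspecified species, enzyme activity read after 45 min by spectrophotometric detection of Fe(SCN)3 colour, IC50 reflects activity reduction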
# Sequence (Q16762 whole entry): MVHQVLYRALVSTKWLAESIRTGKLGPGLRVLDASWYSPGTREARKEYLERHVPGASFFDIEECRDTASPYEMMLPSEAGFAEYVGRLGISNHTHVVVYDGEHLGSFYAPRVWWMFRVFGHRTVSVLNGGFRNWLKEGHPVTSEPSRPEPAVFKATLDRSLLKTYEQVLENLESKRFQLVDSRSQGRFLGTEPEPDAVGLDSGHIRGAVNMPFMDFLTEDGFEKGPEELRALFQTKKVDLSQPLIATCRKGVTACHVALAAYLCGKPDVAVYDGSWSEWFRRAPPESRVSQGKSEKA
ENDPOINT NAME: IC50 (µM)
Return type: number; implicit unit µM.

query: So what's the measured IC50 for this one? Cc1cc2c(C(C)C)c(O)c(O)c(C=O)c2c(O)c1-c1c(C)cc2c(C(C)C)c(O)c(O)c(C=O)c2c1O
result: 11

====

# TARGET: E. coli GroEL/ES (Escherichia coli, UniProt P0A6F5)
Reported values of pIC50 for individual entries
pIC50 here is simply -log10 of the concentration when that concentration is written in mol/L.

Reference set (5 entries):
| COMPOUND | MEAS VALUE |
| --- | --- |
| O=C(O)C1=CC(=C(c2ccc(O)c(C(=O)O)c2)c2ccc(O)c(C(=O)O)c2)C=CC1=O | 6.05 |
| CC[C@H](C)C1O[C@]2(C=C[C@@H]1C)C[C@@H]1C[C@@H](C/C=C(\C)[C@@H](O[C@H]3C[C@H](OC)[C@@H](O[C@H]4C[C@H](OC)[C@H](NC(C)=O)[C@H](C)O4)[C@H](C)O3)[C@@H](C)/C=C/C=C3\CO[C@@H]4[C@H](O)C(C)=C[C@@H](C(=O)O1)[C@]34O)O2 (some centres not stated) | 4.96 |
| CCCCC/C=C\C/C=C\C/C=C\C/C=C\CCCC(=O)O | 5.14 |
| COc1cc(/C=C/C(=O)CC(=O)/C=C/c2ccc(O)c(OC)c2)ccc1O | 5.51 |
| CCCCCCCCCc1ccc(O)cc1 | 4.92 |

Now consider the entry below.
query: So what's the measured pIC50 for this one? CN(C)c1ccc(C(=C2C=CC(=[N+](C)C)C=C2)c2ccc(N(C)C)cc2)cc1
result: 4.96

====

# TARGET: E. coli GroEL/ES (Escherichia coli, UniProt P0A6F5)
ENDPOINT NAME: IC50 (µM)
Return type: number; implicit unit µM.

Reference set (6 entries):
| MOLECULE | TARGET | MEAS VALUE |
| --- | --- | --- |
| CCc1oc2ccccc2c1C(=O)c1cc(Br)c(O)c(Br)c1 | E. coli GroEL/ES (Escherichia coli, UniProt P0A6F5) | 49 |
| CC1(C)CCC2=C(O1)c1ccccc1C(=O)C2=O | E. coli GroEL/ES (Escherichia coli, UniProt P0A6F5) | 0.59 |
| O=C(/C=C/c1ccc(O)cc1)c1ccccc1 [4-HYDROXYCHALCONE] | E. coli GroEL/ES (Escherichia coli, UniProt P0A6F5) | 40 |
| CC1=CC(=O)c2c(O)cccc2C1=O | E. coli GroEL/ES (Escherichia coli, UniProt P0A6F5) | 0.29 |
| O=C(OC[C@H]1O[C@@H](OC(=O)c2cc(O)c(O)c(OC(=O)c3cc(O)c(O)c(O)c3)c2)[C@H](OC(=O)c2cc(O)c(O)c(OC(=O)c3cc(O)c(O)c(O)c3)c2)[C@@H](OC(=O)c2cc(O)c(O)c(OC(=O)c3cc(O)c(O)c(O)c3)c2)[C@@H]1OC(=O)c1cc(O)c(O)c(OC(=O)c2cc(O)c(O)c(O)c2)c1)c1cc(O)c(O)c(OC(=O)c2cc(O)c(O)c(O)c2)c1 | E. coli GroEL/ES (Escherichia coli, UniProt P0A6F5) | 1 |
| Cc1cc2nc3c(=O)[nH]c(=O)nc-3n(C[C@H](O)[C@H](O)[C@H](O)CO)c2cc1C | E. coli GroEL/ES (Escherichia coli, UniProt P0A6F5) | 18 |

query: # get_value(readout= IC50, system= E. coli GroEL/ES (Escherichia coli, UniProt P0A6F5)) for COc1ccc(-c2ccc3cc(C(=O)O)ccc3c2)cc1C12CC3CC(CC(C3)C1)C2
result: 5.1
